All figures here come from PubChem BioAssay AID1159580.

test_details: chemical genetic growth profiling, strain panel (AID 1159580);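 further: tested at 20 µM; growth read once vehicle control cultures reached saturation at 30 °C; 1 = growth at the plate median or of vehicle wells; lower values mean less growth of the strain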
test_conditions: S. cerevisiae deletion strains, growth OD, locus YKL190W, strain CNB1, hits give low values
Out of some 5,500 compounds screened, about 2,000 (36%) were called active. Inconclusive results (about 18%) are left out. This is one part of the list.
# maps each entry to its normalized growth
measured_attribute: normalized growth

{"columns": ["molecule", "readout_value"],
 "data": [
  ["OC(Cn1cncn1)(Cn1cncn1)c1ccc(F)cc1F", 0.997],
  ["O=C1OC(c2ccc(O)cc2)(c2ccc(O)cc2)c2ccccc21", 0.994],
  ["Cc1cccc(C)c1NC1=NCCCS1", 1.01],
  ["CC1OC1P(=O)(O)O (stereo unspecified)", 1],
  ["COC(=O)c1c(-c2c(Cl)cccc2Cl)noc1NC(=O)NN1CCCCC1", 1],
  ["O=c1cc[nH]c(=S)[nH]1", 1.02],
  ["CCCCOC(=O)c1ccc(N)cc1", 0.975],
  ["O=C(Cn1ccnc1[N+](=O)[O-])NCCO", 1.01],
  ["CCC(C)(C)C(=O)O[C@H]1C[C@@H](C)C=C2C=C[C@H](C)[C@H](CC[C@@H]3C[C@@H](O)CC(=O)O3)[C@H]21", 1.01],
  ["COc1cc(-c2coc3cc(OCc4ccccc4)c(OC)c(O)c3c2=O)cc(OCc2ccccc2)c1OC", 1.01],
  ["COC(=O)C(C)c1ccc(C(=O)c2cccs2)cc1 (stereo unspecified)", 0.997],
  ["CCN(CC)CCOC(=O)c1ccc(N)cc1", 1.01],
  ["COC(=O)[C@@H]1OC(=O)[C@H]2O[C@@]23[C@@]1(C)CCC1[C@@]2(C)CCC(=O)C(C)(C)C2C[C@@H](OC(C)=O)[C@]13C (stereo partly specified)", 1],
  ["CCN(CC)C(=O)c1cccc(C)c1", 0.988],
  ["Cc1onc(-c2ccccc2)c1NC(=O)Nc1c(Cl)cccc1Cl", 1],
  ["CCCCOC(=O)c1ccccc1C(=O)OCc1ccccc1", 0.979],
  ["Nc1ccc(N=Nc2ccccc2)c(N)n1", 1],
  ["CO[C@@]1(NC(=O)CSCC#N)C(=O)N2C(C(=O)O)=C(CSc3nnnn3C)CSC21 (stereo partly specified)", 0.995],
  ["COC(=O)C(O)c1ccccc1 (stereo unspecified)", 0.975],
  ["Clc1cccc(Cl)c1NC1=NCCN1", 1.01],
  ["CC1(C)O[C@H]2[C@H](O)C[C@](O)(C(N)=O)C[C@H]2O1", 1.02]
]}

* * *

# maps each entry to its normalized growth
test_details: chemical genetic growth profiling, strain panel (AID 1159580)
test_conditions: S. cerevisiae deletion strains, growth OD, locus YPR119W, strain clb2, hits give low values
About 2,000 (36%) of roughly 5,500 compounds were called active. Not shown: some 18% with an inconclusive outcome. Some of the results follow.

{"columns": ["compound", "normalized growth"],
 "data": [
  ["C=CCSCC1Nc2cc(Cl)c(S(N)(=O)=O)cc2S(=O)(=O)N1 (stereo not drawn)", 1.02],
  ["Oc1ccc2c(c1)OCC1c3cc4c(cc3OC21)OCO4 (stereo not drawn)", 1.02],
  ["CN1C(C(=O)Nc2ccccn2)=C(O)c2ccccc2S1(=O)=O", 0.931],
  ["COc1cc([C@@H]2c3cc4c(c(O)c3C[C@H]3COC(=O)[C@@H]32)OCO4)cc(OC)c1OC", 0.979],
  ["COc1ccc([C@H]2Oc3cc(OC)cc(OC)c3C[C@H]2O)cc1", 0.99],
  ["COc1cc(-c2coc3cc(OC)c(OC)c(OC)c3c2=O)cc(OC)c1OC", 0.975],
  ["COc1ccc2c(c1)O[C@H]1c3ccc(OC)cc3OC[C@@H]21", 0.939],
  ["CC(C)[C@@H]1CC[C@@H](C)C[C@H]1O", 1.01]
]}

* * *

# maps each entry to its normalized growth
test_details: chemical genetic growth profiling, strain panel (AID 1159580)
test_conditions: S. cerevisiae strains, growth OD, strain wild type, hits give low values
Among all 5,500 compounds or so, about 2,000 (36%) were called active. Roughly 18% stayed inconclusive and do not appear here. Some of the results follow.

{"columns": ["compound", "normalized growth"],
 "data": [
  ["C#CCCCCCCCCCCCC(O)CC(O)CO (stereo not drawn)", 0.992],
  ["C#CCCCCCCCCCCCC(=O)CC(O)COC(C)=O (stereo not drawn)", 0.83],
  ["Cc1ccc(CC(=O)O)cc1", 1.02],
  ["O=c1[nH]oc2c1CCNC2", 0.998],
  ["CC(=O)OCC[C@H](C)CCC=C(C)C", 1],
  ["COC(=O)C1=CCCN(C)C1", 0.993],
  ["CC[C@H](C)C(=O)O[C@H]1C[C@@H](C)C=C2C=C[C@H](C)[C@H](CC[C@@H]3C[C@@H](O)CC(=O)O3)[C@H]21", 0.963],
  ["CCCC(=O)O[C@]1(C(=O)CO)CCC2[C@@H]3CCC4=CC(=O)CC[C@]4(C)C3[C@@H](O)C[C@@]21C (stereo partly drawn)", 1.01],
  ["C#CCCCCCCCCCCCC(O)CC(O)COC(C)=O (stereo not drawn)", 0.97],
  ["C=C1CCC2C(CC2(C)C)C(=C)CC/C1=N\\O (stereo not drawn)", 0.982],
  ["O=C1CC2OCC=C3CN4CC[C@]56c7ccccc7N1C5[C@H]2[C@H]3CC46 (stereo partly drawn)", 1.01],
  ["O=C(O)CN1C(=O)c2cccc3cccc(c23)C1=O", 1],
  ["N#Cc1c(N)oc(-c2ccco2)c1-c1ccco1", 0.984]
]}

* * *

test_details: chemical genetic growth profiling, strain panel (AID 1159580);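 further: tested at 20 µM; growth read once vehicle control cultures reached saturation at 30 °C; 1 = growth at the plate median or of vehicle wells; lower values mean less growth of the strain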
test_conditions: S. cerevisiae deletion strains, growth OD, locus YDR195W, strain ref2
Where a name gives a salt, the structure may show the parent alone. The whole screen tested about 5,500 compounds, of which about 2,000 (36%) were called active. Inconclusive results (about 18%) are left out. The list shows a part of the results. Where a SMILES comes first, the peptide text is derived from it. The star is where a group is joined. Tfa = O=C(C(F)(F)F)*
measured_attribute: normalized growth

{"columns": ["molecule", "measured_attribute", "readout_value"],
 "data": [
  ["C[N+]1(C)C2CC(OC(=O)[C@@H](CO)c3ccccc3)CC1C1OC12 (stereo partly drawn)", "normalized growth", "1.01 (inactive)"],
  ["Nc1ccn(C2O[C@H](CO)[C@@H](O)[C@@H]2O)c(=O)n1 (stereo partly drawn)", "normalized growth", "0.997 (inactive)"],
  ["CC(C)NCC(O)COc1cccc2ccccc12 (stereo not drawn)", "normalized growth", "1.02 (inactive)"],
  ["CC(C)C(NC(=O)C(Cc1ccc(O)cc1)NC(=O)C(NC(=O)C(F)(F)F)C(C)C)C(=O)O (stereo not drawn) (Tfa-Val-Tyr-Val-OH; configuration not given here)", "normalized growth", "0.995 (inactive)"],
  ["C=CC(N)CCC(=O)O (stereo not drawn)", "normalized growth", "1 (inactive)"],
  ["CC[N+](CC)(CC)CCOc1cccc(OCC[N+](CC)(CC)CC)c1OCC[N+](CC)(CC)CC", "normalized growth", "0.983 (inactive)"],
  ["Clc1cccc(Cl)c1NC1=NCCN1", "normalized growth", "0.994 (inactive)"],
  ["COc1ccc(CCN2CCC(Nc3nc4ccccc4n3Cc3ccc(F)cc3)CC2)cc1", "normalized growth", "0.971 (inactive)"]
]}

* * *

test_details: chemical genetic growth profiling, strain panel (AID 1159580);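 further: tested at 20 µM; growth read once vehicle control cultures reached saturation at 30 °C; 1 = growth at the plate median or of vehicle wells; lower values mean less growth of the strain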
test_conditions: S. cerevisiae deletion strains, growth OD, locus YGL086W, strain mad1, hits give low values
In all, about 5,500 compounds went through this assay and about 2,000 (36%) were called active. About 18% were inconclusive and are not listed. Some of the results follow.
Lab note: cut-off is 1. Strictly less in normalized growth is yes (1). Exactly 1 or more is no (0).

{"columns": ["molecule", "qualitative_label"],
 "data": [
  ["Clc1cccc(Cl)c1NC1=NCCN1", "no (0)"],
  ["CC1(C)C2(Cl)C(Cl)C(Cl)C(Cl)(C(Cl)Cl)C1(Cl)C2Cl (stereo not drawn)", "yes (1)"],
  ["COc1ccc2c(c1)CCC(c1ccccc1)=C2c1ccc(OCCN2CCCC2)cc1", "yes (1)"]
]}

* * *

test_details: chemical genetic growth profiling, strain panel (AID 1159580);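 further: tested at 20 µM; growth read once vehicle control cultures reached saturation at 30 °C; 1 = growth at the plate median or of vehicle wells; lower values mean less growth of the strain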
test_conditions: S. cerevisiae deletion strains, growth OD, locus YNL307C, strain MCK1 (second series), hits give low values
Among all 5,500 compounds or so, about 2,000 (36%) were called active. Not shown: some 18% with an inconclusive outcome. This is one part of the list.
# maps each entry to its normalized growth

{"columns": ["compound", "normalized growth"],
 "data": [
  ["Cc1c(C(=S)Nc2ccccc2)sc2ccccc12", 0.842],
  ["Cc1onc(-c2c(Cl)cccc2Cl)c1C(=O)NC(C)(C)CC(C)(C)C", 1],
  ["ClC1=C(C=Nc2ccc(Cl)cc2)CSc2ccc(Cl)cc21", 0.861],
  ["CCc1ccn2cc(Nc3ccccc3Cl)nc2c1", 0.917],
  ["O=[N+]([O-])c1ccc2oc(C(O)c3cccc(Cl)c3)cc2c1 (configuration not stated)", 0.925],
  ["Cc1ccc(NS(=O)(=O)c2ccc(-c3csc(C)n3)s2)c(C)c1", 0.887],
  ["Cc1ccc(NS(=O)(=O)c2ccc(Cl)cc2)c(N=Cc2cc(Cl)cc(Cl)c2O)c1", 0.145],
  ["O=C(Nc1ccc(OC(F)(F)F)cc1)N1CCN(c2nc(-c3ccccc3)ns2)CC1", 0.805],
  ["O=C(/C=C/Sc1nc2ccccc2s1)c1ccc(Cl)cc1", 0.92],
  ["OC(=Cc1nc2ccccc2nc1C=C(O)c1ccc(Cl)cc1)c1ccc(Cl)cc1", 0.823],
  ["Cc1c(-c2ccnn2C(=O)c2ccco2)cnn1-c1ccccc1", 0.894],
  ["Cc1onc(-c2c(Cl)cccc2Cl)c1C(=O)NNc1c(Cl)cccc1Cl", 0.972],
  ["Cc1onc(-c2c(F)cccc2Cl)c1C(=O)ON=C1C2CC3CC(C2)CC1C3", 0.953],
  ["CCCCCCCCCCCC(=O)NOC(=O)c1c(-c2c(Cl)cccc2Cl)noc1C", 0.69],
  ["CC(C)(C)c1ccc(C(=O)Nc2ccc(C(F)(F)F)cc2)s1", 0.99],
  ["FC(F)(F)c1ccnc(N2CCCN(C(=S)Nc3ccc(Cl)cc3Cl)CC2)n1", 0.95],
  ["O=C(Nc1ccc(Cl)cc1)OCCSc1nc2ccccc2s1", 0.909]
]}
